- Tested on: Sagittaria pygmaea, L.
- Measurement Description: Preemergence weed control under flooded paddy conditions, SAGPY (Arrowhead (Pygmaea))
- Format: in vivo
- Assay Conditions: 0.0620 kg/ha; preemergence weeds, flooded paddy; herbicidal effect rating 0-9, three to four weeks after treatment

{"Compound": "COc1cc(C(Br)Br)ccc1-c1nsc2ccc(-n3c(=O)cc(C(F)(F)F)n(C)c3=O)cc12 [Example 447]", "SAGPY": 4.0}
{"Compound": "Cn1c(C(F)(F)F)cc(=O)n(-c2ccc3snc(C(SCCCO)SCCCO)c3c2)c1=O [Example 424]", "SAGPY": 0.0}
{"Compound": "Cn1c(C(F)(F)F)cc(=O)n(-c2ccc3snc(C(=O)c4ccccc4)c3c2)c1=O [Example 449]", "SAGPY": 4.0}
{"Compound": "Cn1c(C(F)(F)F)cc(=O)n(-c2ccc3snc(COC(=O)Cc4ccc(Cl)cc4)c3c2)c1=O [Example 452]", "SAGPY": 0.0}
{"Compound": "CCOC(=O)c1nsc2cc(F)c(-n3c(=O)cc(C(F)(F)F)n(C)c3=O)cc12 [Example 423]", "SAGPY": 9.0}
{"Compound": "Cn1c(C(F)(F)F)cc(=O)n(-c2ccc3snc(C(=O)C(C)(C)C)c3c2)c1=O [Example 432]", "SAGPY": 3.5}
{"Compound": "Cn1c(C(F)(F)F)cc(=O)n(-c2ccc3snc(COC4CCCCO4)c3c2)c1=O (centres unmarked) [Example 456]", "SAGPY": 0.0}
{"Compound": "Cn1c(C(F)(F)F)cc(=O)n(-c2ccc3snc(/C=N/Nc4ccccc4)c3c2)c1=O [Example 408]", "SAGPY": 0.0}
